assayed-target: Mature CpdB (Escherichia coli)
Sequence (P08331 20-647): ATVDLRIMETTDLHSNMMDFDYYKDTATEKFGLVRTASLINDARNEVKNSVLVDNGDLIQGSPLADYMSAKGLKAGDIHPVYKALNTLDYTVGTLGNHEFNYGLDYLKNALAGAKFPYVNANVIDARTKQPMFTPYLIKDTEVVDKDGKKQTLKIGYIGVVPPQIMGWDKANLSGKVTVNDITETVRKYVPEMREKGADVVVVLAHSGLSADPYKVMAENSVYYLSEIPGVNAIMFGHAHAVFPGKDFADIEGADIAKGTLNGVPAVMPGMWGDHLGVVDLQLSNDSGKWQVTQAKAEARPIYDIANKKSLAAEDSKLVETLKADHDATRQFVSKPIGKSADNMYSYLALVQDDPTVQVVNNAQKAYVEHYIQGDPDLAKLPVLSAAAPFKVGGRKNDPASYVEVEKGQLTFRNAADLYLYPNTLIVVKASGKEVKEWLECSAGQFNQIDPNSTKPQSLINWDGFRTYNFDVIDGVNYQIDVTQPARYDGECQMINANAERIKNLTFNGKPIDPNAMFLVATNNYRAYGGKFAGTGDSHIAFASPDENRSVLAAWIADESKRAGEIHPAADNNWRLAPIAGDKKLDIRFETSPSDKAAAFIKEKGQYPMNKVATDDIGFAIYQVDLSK
experimental-protocol: biochemical
Format: biochemical
Set-up: A structural model of mature CpdB (aa 20–647) was built; GST (N, cleaved yes); made in house; host or cells: E. coli BL21
condition-description: mature CpdB; substrate bis-4-NPP; global fit, mixed partial inhibition (Figure 5); values without SD are single experiments; read-out: Inhibition constant (Ki)
# log10(Ki) per record follows
# values: log10(Ki), units µM

Nc1ncnc2c1ncn2[C@@H]1O[C@H](CO)[C@@H](OP(=O)(O)O)[C@H]1O [3′-AMP] :: 0.56
Nc1ncnc2c1ncn2[C@@H]1O[C@H](COP(=O)(O)OP(=O)(O)OP(=O)(O)O)[C@@H](O)[C@H]1O [ATP] :: 2.05
Nc1ncnc2c1ncn2[C@@H]1O[C@H](CO)[C@@H](O)[C@H]1OP(=O)(O)O [2′-AMP] :: 0.94
Nc1ncnc2c1ncn2[C@@H]1O[C@H](COP(=O)(O)OP(=O)(O)O)[C@@H](O)[C@H]1O [ADP] :: 1.78
Nc1ncnc2c1ncn2[C@@H]1O[C@H](CO)[C@H]2OP(=O)(O)O[C@H]21 [2′,3′-cAMP] :: 0.70

In the following, a different compound is considered.
May I ask what log10(Ki) has been recorded for Nc1ncnc2c1ncn2[C@@H]1O[C@H](COP(=O)(O)O)[C@@H](O)[C@H]1O [5′-AMP] ?
1.15

###

assayed-target: CpdB_Ndom (N-terminal domain of CpdB) (Escherichia coli, UniProt P08331, D305N/I97V/M87I)
Construct: GST (N, cleaved yes); made in house; host or cells: E. coli BL21
Sequence (P08331 20-354 M87I/I97V/D305N): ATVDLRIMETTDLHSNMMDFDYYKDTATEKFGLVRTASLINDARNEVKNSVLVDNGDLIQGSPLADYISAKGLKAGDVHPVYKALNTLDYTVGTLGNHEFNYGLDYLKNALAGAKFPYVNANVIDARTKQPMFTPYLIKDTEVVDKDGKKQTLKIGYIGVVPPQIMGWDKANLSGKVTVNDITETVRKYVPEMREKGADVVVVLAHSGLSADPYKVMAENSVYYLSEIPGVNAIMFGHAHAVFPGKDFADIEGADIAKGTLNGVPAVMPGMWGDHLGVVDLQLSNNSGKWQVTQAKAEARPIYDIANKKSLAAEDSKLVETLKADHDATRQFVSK
Type: biochemical
condition-description: CpdB_Ndom; substance is the substrate; mean ± SD of three experiments
Rule: k cat under 6 s⁻¹ gives n, otherwise y.

Textbook exercise: given the entry Nc1nc2c(ncn2[C@@H]2O[C@@H]3COP(=O)(O)O[C@H]4[C@@H](O)[C@H](n5cnc6c(=O)[nH]c(N)nc65)O[C@@H]4COP(=O)(O)O[C@H]3[C@H]2O)c(=O)[nH]1 [c-di-GMP, 3′,5′-cyclic diguanosine monophosphate] , state whether its k cat is greater than or equal to 6 s⁻¹.
n

Textbook exercise: given the entry O=[N+]([O-])c1ccc(OP(=O)(O)Oc2ccc([N+](=O)[O-])cc2)cc1 [bis-4-NPP, bis-4-nitrophenylphosphate] , state whether its k cat is greater than or equal to 6 s⁻¹.
y

Textbook exercise: given the entry Nc1ncnc2c1ncn2[C@@H]1O[C@@H]2COP(=O)(O)O[C@H]3[C@@H](O)[C@H](n4cnc5c(N)ncnc54)O[C@@H]3COP(=O)(O)O[C@H]2[C@H]1O [c-di-AMP, 3′,5′-cyclic diadenosine monophosphate] , state whether its k cat is greater than or equal to 6 s⁻¹.
n

Textbook exercise: given the entry Nc1nc2c(ncn2[C@@H]2O[C@H](CO)[C@H]3OP(=O)(O)O[C@H]32)c(=O)[nH]1 , state whether its k cat is greater than or equal to 6 s⁻¹.
y

Textbook exercise: given the entry C[N+](C)(C)CCOP(=O)(O)OP(=O)([O-])OC[C@H]1O[C@@H](n2ccc(N)nc2=O)[C@H](O)[C@@H]1O , state whether its k cat is greater than or equal to 6 s⁻¹.
n

###

assayed-target: CpdB_Ndom (N-terminal domain of CpdB) (Escherichia coli, UniProt P08331, D305N/I97V/M87I)
Construct: GST (N, cleaved yes); made in house; host or cells: E. coli BL21
Assay type: biochemical
condition-description: CpdB_Ndom; substance is the substrate; mean ± SD of three experiments
# K M per record follows
Respond numerically; units are µM and should not be typed.

Example entries and their recorded answers appear below.
Nc1ncnc2c1ncn2[C@@H]1O[C@H](CO)[C@H]2OP(=O)(O)O[C@H]21 :: 390
Nc1ccn([C@@H]2O[C@H](CO)[C@H]3OP(=O)(O)O[C@H]32)c(=O)n1 :: 180

Under CpdB_Ndom (N-terminal domain of CpdB) (Escherichia coli, UniProt P08331, D305N/I97V/M87I): K M value of C[N+](C)(C)CCOP(=O)(O)OP(=O)([O-])OC[C@H]1O[C@@H](n2ccc(N)nc2=O)[C@H](O)[C@@H]1O ?
2900

Under CpdB_Ndom (N-terminal domain of CpdB) (Escherichia coli, UniProt P08331, D305N/I97V/M87I): K M value of O=[N+]([O-])c1ccc(OP(=O)(O)Oc2ccc([N+](=O)[O-])cc2)cc1 [bis-4-NPP, bis-4-nitrophenylphosphate] ?
1300

Under CpdB_Ndom (N-terminal domain of CpdB) (Escherichia coli, UniProt P08331, D305N/I97V/M87I): K M value of Nc1nc2c(ncn2[C@@H]2O[C@@H]3COP(=O)(O)O[C@H]4[C@@H](O)[C@H](n5cnc6c(=O)[nH]c(N)nc65)O[C@@H]4COP(=O)(O)O[C@H]3[C@H]2O)c(=O)[nH]1 [c-di-GMP, 3′,5′-cyclic diguanosine monophosphate] ?
250

Under CpdB_Ndom (N-terminal domain of CpdB) (Escherichia coli, UniProt P08331, D305N/I97V/M87I): K M value of Nc1nc2c(ncn2[C@@H]2O[C@H](CO)[C@H]3OP(=O)(O)O[C@H]32)c(=O)[nH]1 ?
570

Under CpdB_Ndom (N-terminal domain of CpdB) (Escherichia coli, UniProt P08331, D305N/I97V/M87I): K M value of Nc1ncnc2c1ncn2[C@@H]1O[C@@H]2COP(=O)(O)O[C@H]2[C@H]1O ?
6900

Under CpdB_Ndom (N-terminal domain of CpdB) (Escherichia coli, UniProt P08331, D305N/I97V/M87I): K M value of Nc1ncnc2c1ncn2[C@@H]1O[C@H](COP(=O)(O)O[C@H]2[C@@H](O)[C@H](n3cnc4c(N)ncnc43)O[C@@H]2COP(=O)(O)O)[C@@H](O)[C@H]1O ?
230

Under CpdB_Ndom (N-terminal domain of CpdB) (Escherichia coli, UniProt P08331, D305N/I97V/M87I): K M value of Nc1ncnc2c1ncn2[C@@H]1O[C@@H]2COP(=O)(O)O[C@H]3[C@@H](O)[C@H](n4cnc5c(N)ncnc54)O[C@@H]3COP(=O)(O)O[C@H]2[C@H]1O [c-di-AMP, 3′,5′-cyclic diadenosine monophosphate] ?
3400

Under CpdB_Ndom (N-terminal domain of CpdB) (Escherichia coli, UniProt P08331, D305N/I97V/M87I): K M value of Nc1ncnc2c1ncn2[C@@H]1O[C@H](CO)[C@@H](OP(=O)(O)O)[C@H]1O ?
880

Under CpdB_Ndom (N-terminal domain of CpdB) (Escherichia coli, UniProt P08331, D305N/I97V/M87I): K M value of O=c1ccn([C@@H]2O[C@H](CO)[C@H]3OP(=O)(O)O[C@H]32)c(=O)[nH]1 ?
630
